Recorded AC50 values for a group of compounds are listed next.
Molecular target: Cytochrome P450 2D6 (Homo sapiens, UniProt P10635);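 also: CYP2D6 member of a cytochrome P450 panel assay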
Sequence (P10635 whole entry): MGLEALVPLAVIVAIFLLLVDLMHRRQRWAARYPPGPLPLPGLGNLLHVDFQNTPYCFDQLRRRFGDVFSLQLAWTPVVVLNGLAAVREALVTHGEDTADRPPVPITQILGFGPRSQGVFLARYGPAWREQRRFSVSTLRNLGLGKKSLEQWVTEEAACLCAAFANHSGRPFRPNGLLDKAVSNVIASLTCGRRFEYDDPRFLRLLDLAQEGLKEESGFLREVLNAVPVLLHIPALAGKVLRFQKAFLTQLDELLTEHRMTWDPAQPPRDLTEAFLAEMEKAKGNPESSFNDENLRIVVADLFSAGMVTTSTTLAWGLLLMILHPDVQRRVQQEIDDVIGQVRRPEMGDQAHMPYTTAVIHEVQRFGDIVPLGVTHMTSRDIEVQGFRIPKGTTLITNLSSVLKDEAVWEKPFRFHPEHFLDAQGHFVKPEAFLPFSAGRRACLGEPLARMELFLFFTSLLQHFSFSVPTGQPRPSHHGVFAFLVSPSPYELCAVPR

Use the examples below as a reference point.
INSERT INTO measurements (compound, target_desc, result) VALUES
  ('Cc1ccc(-n2c(C)cc(C(=S)N3CCOCC3)c2C)cc1C', 'Cytochrome P450 2D6 (Homo sapiens, UniProt P10635)', '22.4 µM (inconclusive)'),
  ('CCC/C=C(\CCC)C(NC(=O)Cc1ccccc1)c1ccc(C(=O)OC)cc1 (stereo not drawn)', 'Cytochrome P450 2D6 (Homo sapiens, UniProt P10635)', '5.01 µM (inconclusive)'),
  ('C=CCOc1ccccc1OC[C@H](O)CNC(C)C', 'Cytochrome P450 2D6 (Homo sapiens, UniProt P10635)', '7.94 µM (inconclusive)'),
  ('N#Cc1c(Cl)cccc1-n1ccnc1', 'Cytochrome P450 2D6 (Homo sapiens, UniProt P10635)', '7.08 µM (inconclusive)'),
  ('COC(=O)[C@@H]1CC[C@H](C)[C@@H](c2ccc(C)cc2)N1C(=O)c1ccc(/C=N\O[C@@H](C)CN2CCCc3nc(C)c(C)cc32)cc1', 'Cytochrome P450 2D6 (Homo sapiens, UniProt P10635)', '6.31 µM (inconclusive)');

Please give the measured AC50 for this compound: `Cc1ccc(C(=O)NCCNc2ccc(Cl)cc2[N+](=O)[O-])o1`
20 µM (inconclusive)

Please give the measured AC50 for this compound: CCC(C)N1C(=O)C2C(C(=O)Nc3cccc(OC)c3)C3C=CC2(O3)C1C(=O)NC1CCCCC1C (stereo not drawn)
7.08 µM (inconclusive)

Please give the measured AC50 for this compound: CCCCn1nc2cc(C(=O)NC3CCCc4ccccc43)ccc2c1OCC (stereo not drawn)
22.4 µM (inconclusive)

Please give the measured AC50 for this compound: `O=C(N/N=C/c1ccc(Cl)cc1Cl)c1cccc(F)c1`
8.91 µM (inconclusive)

Please give the measured AC50 for this compound: `O=C(COc1cccc(NC(=O)c2cccc([N+](=O)[O-])c2)c1)c1ccc(Br)cc1`
3.16 µM (inconclusive)

Please give the measured AC50 for this compound: `O=C(Oc1ccccc1)N1CCC[C@@]2(CCN(c3ccncc3)C2)C1`
20 µM (inconclusive)

Please give the measured AC50 for this compound: `COCCNc1cc(-c2ccccc2CN(C)C)ncn1`
31.6 µM (inconclusive)

Please give the measured AC50 for this compound: `COc1ccc(C(=O)N2CCC3(CC2)CN(c2ccncc2)C3)cc1`
25.1 µM (inconclusive)

Please give the measured AC50 for this compound: CCCC/C=C/C(NC(=O)c1ccco1)c1ccccc1 (stereo not drawn)
39.8 µM (inconclusive)

Please give the measured AC50 for this compound: `CC#CCOC(=O)c1c(C)nc2sc3c(c2c1N)CC[C@@H](O)C3`
31.6 µM (inconclusive)

Please give the measured AC50 for this compound: `N#Cc1ccc(CN2CCCC3(CCNCC3)C2)cc1`
20 µM (inconclusive)

Please give the measured AC50 for this compound: `O=[N+]([O-])c1ccc(C2=Nn3c(nnc3-c3ccc(Cl)cc3)SC2)o1`
5.01 µM (inconclusive)

Please give the measured AC50 for this compound: `O=C(CCN1CCCCC1)N1CCc2c([nH]c3ccccc23)[C@H]1c1cccnc1`
3.16 µM (inconclusive)

Please give the measured AC50 for this compound: `C#CCN[C@@H](C)Cc1ccccc1`
25.1 µM (inconclusive)

Please give the measured AC50 for this compound: O=C1Nc2ccccc2C(O)(C(=O)NCc2ccc3c(c2)OCO3)N1c1ccc(Cl)c(Cl)c1 (stereo not drawn)
1.12 µM (inconclusive)

Please give the measured AC50 for this compound: CCC/C=C(\CCC)C(NS(=O)(=O)c1ccc(-c2ccccc2)cc1)c1ccc(C(=O)OC)cc1 (stereo not drawn)
39.8 µM (inconclusive)

Please give the measured AC50 for this compound: `CCCCOc1ccc(CC(=O)NO)cc1`
10 µM (inconclusive)

Please give the measured AC50 for this compound: `COC(=O)[C@@]1(Cc2ccccc2)[C@H]2c3cc(C(=O)N(C)C)n(Cc4ccc(O)c(OC)c4)c3C[C@H]2CN1C(=O)c1ccccc1`
31.6 µM (inconclusive)
